system: MCF7; experiment: percentage of EdU-negative (G0-arrested) nuclei per well, 72 h; higher = more G0 arrest; settings: protein concentration 0.0225 µM; reference: sequence is the full UniProt precursor, the tested protein was the secreted form or ectodomain;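 further: secreted proteins added to cultured cells, EdU pulse at the end, nuclei found by Hoechst imaging, EdU status from nuclear versus surrounding ring intensity ratio, PBS as neutral control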
Parameter measured: percentage of EdU-negative (%)

INSERT INTO measurements (seq_text, subject_of_test, unit_descriptor, experimental_value) VALUES
  ('MPGGPGVLQALPATIFLLFLLSAVYLGPGCQALWMHKVPASLMVSLGEDAHFQCPHNSSNNANVTWWRVLHGNYTWPPEFLGPGEDPNGTLIIQNVNKSHGGIYVCRVQEGNESYQQSCGTYLRVRQPPPRPFLDMGEGTKNRIITAEGIILLFCAVVPGTLLLFRKRWQNEKLGLDAGDEYEDENLYEGLNLDDCSMYEDISRGLQGTYQDVGSLNIGDVQLEKP', 'MCF7', '%', 25.3),
  ('MQPRRQRLPAPWSGPRGPRPTAPLLALLLLLAPVAAPAGSGDPDDPGQPQDAGVPRRLLQQAARAALHFFNFRSGSPSALRVLAEVQEGRAWINPKEGCKVHVVFSTERYNPESLLQEGEGRLGKCSARVFFKNQKPRPTINVTCTRLIEKKKRQQEDYLLYKQMKQLKNPLEIVSIPDNHGHIDPSLRLIWDLAFLGSSYVMWEMTTQVSHYYLAQLTSVRQWKTNDDTIDFDYTVLLHELSTQEIIPCRIHLVWYPGKPLKVKYHCQELQTPEEASGTEEGSAVVPTELSNF', 'MCF7', '%', 24.2),
  ('MAWPLCTLLLLLATQAVALAWSPQEEDRIIEGGIYDADLNDERVQRALHFVISEYNKATEDEYYRRLLRVLRAREQIVGGVNYFFDIEVGRTICTKSQPNLDTCAFHEQPELQKKQLCSFQIYEVPWEDRMSLVNSRCQEA', 'MCF7', '%', 25.7),
  ('MRLAVLFSGALLGLLAAQGTGNDCPHKKSATLLPSFTVTPTVTESTGTTSHRTTKSHKTTTHRTTTTGTTSHGPTTATHNPTTTSHGNVTVHPTSNSTATSQGPSTATHSPATTSHGNATVHPTSNSTATSPGFTSSAHPEPPPPSPSPSPTSKETIGDYTWTNGSQPCVHLQAQIQIRVMYTTQGGGEAWGISVLNPNKTKVQGSCEGAHPHLLLSFPYGHLSFGFMQDLQQKVVYLSYMAVEYNVSFPHAAQWTFSAQNASLRDLQAPLGQSFSCSNSSIILSPAVHLDLLSLRLQAAQLPHTGVFGQSFSCPSDRSILLPLIIGLILLGLLALVLIAFCIIRRRPSAYQAL', 'MCF7', '%', 25.5),
  ('MKPVLPLQFLVVFCLALQLVPGSPKQRVLKYILEPPPCISAPENCTHLCTMQEDCEKGFQCCSSFCGIVCSSETFQKRNRIKHKGSEVIMPAN [Q8IUB5]', 'MCF7', '%', 25.9),
  ('MAPAQRPLLPLLLLLLPLPPPPFARAEDAARANSDRYAVYWNRSNPRFHAGAGDDGGGYTVEVSINDYLDIYCPHYGAPLPPAERMEHYVLYMVNGEGHASCDHRQRGFKRWECNRPAAPGGPLKFSEKFQLFTPFSLGFEFRPGHEYYYISATPPNAVDRPCLRLKVYVRPTNETLYEAPEPIFTSNNSCSSPGGCRLFLSTIPVLWTLLGS', 'MCF7', '%', 25.4),
  ('MSNTQAERSIIGMIDMFHKYTRRDDKIEKPSLLTMMKENFPNFLSACDKKGTNYLADVFEKKDKNEDKKIDFSEFLSLLGDIATDYHKQSHGAAPCSGGSQ', 'MCF7', '%', 23.5),
  ('MIFPWKCQSTQRDLWNIFKLWGWTMLCCDFLAHHGTDCWTYHYSEKPMNWQRARRFCRDNYTDLVAIQNKAEIEYLEKTLPFSRSYYWIGIRKIGGIWTWVGTNKSLTEEAENWGDGEPNNKKNKEDCVEIYIKRNKDAGKWNDDACHKLKAALCYTASCQPWSCSGHGECVEIINNYTCNCDVGYYGPQCQFVIQCEPLEAPELGTMDCTHPLGNFSFSSQCAFSCSEGTNLTGIEETTCGPFGNWSSPEPTCQVIQCEPLSAPDLGIMNCSHPLASFSFTSACTFICSEGTELIGKKKTICESSGIWSNPSPICQKLDKSFSMIKEGDYNPLFIPVAVMVTAFSGLAFIIWLARRLKKGKKSKRSMNDPY', 'MCF7', '%', 24.2),
  ('MYTAIPQSGSPFPGSVQDPGLHVWRVEKLKPVPVAQENQGVFFSGDSYLVLHNGPEEVSHLHLWIGQQSSRDEQGACAVLAVHLNTLLGERPVQHREVQGNESDLFMSYFPRGLKYQEGGVESAFHKTSTGAPAAIKKLYQVKGKKNIRATERALNWDSFNTGDCFILDLGQNIFAWCGGKSNILERNKARDLALAIRDSERQGKAQVEIVTDGEEPAEMIQVLGPKPALKEGNPEEDLTADKANAQAAALYKVSDATGQMNLTKVADSSPFALELLISDDCFVLDNGLCGKIYIWKGRKANEKERQAALQVAEGFISRMQYAPNTQVEILPQGHESPIFKQFFKDWK', 'MCF7', '%', 24.6),
  ('MKKFFTVAILAGSVLSTAHGSLLNLKAMVEAVTGRSAILSFVGYGCYCGLGGRGQPKDEVDWCCHAHDCCYQELFDQGCHPYVDHYDHTIENNTEIVCSDLNKTECDKQTCMCDKNMVLCLMNQTYREEYRGFLNVYCQGPTPNCSIYEPPPEEVTCSHQSPAPPAPP [Q9BZM2]', 'MCF7', '%', 24.1),
  ('MQAPGRGPLGLRLMMPGRRGALREPGGCGSCLGVALALLLLLLPACCPVRAQNDTEPIVLEGKCLVVCDSSPSADGAVTSSLGISVRSGSAKVAFSATRSTNHEPSEMSNRTMTIYFDQVLVNIGNHFDLASSIFVAPRKGIYSFSFHVVKVYNRQTIQVSLMQNGYPVISAFAGDQDVTREAASNGVLLLMEREDKVHLKLERGNLMGGWKYSTFSGFLVFPL [Q8IUK8]', 'MCF7', '%', 26.9),
  ('MSPHLTALLGLVLCLAQTIHTQEGALPRPSISAEPGTVISPGSHVTFMCRGPVGVQTFRLEREDRAKYKDSYNVFRLGPSESEARFHIDSVSEGNAGLYRCLYYKPPGWSEHSDFLELLVKESSGGPDSPDTEPGSSAGTVPGTEASGFDAP [Q6ISS4]', 'MCF7', '%', 24.7);

Every entry's value here was drawn from the supplement of paper PMC11316812.
